Target: panel of more than 300 wild-type and mutant kinases (313 kinase panel) (Homo sapiens, UniProt O75676)
Experiment: Kinase profiling in a biochemical assay panel (mobility shift assays and ELISA), %-inhibition at 1 μM; selectivity entropy
Conditions: kinase MSK2; 1 μM
VALUE KIND: %-inhibition of MSK2 (%)
Express your answer in %, writing the number without its unit.

Here are 2 molecules together with their reported answers.
CCCS(=O)(=O)Nc1ccc(F)c(C(=O)c2c[nH]c3ncc(-c4ccc(Cl)cc4)cc23)c1F	-1
CNC(=O)c1cc(Oc2ccc(NC(=O)Nc3ccc(Cl)c(C(F)(F)F)c3)c(F)c2)ccn1	2.43

What %-inhibition of MSK2 value was documented for this molecule, `COc1cc(Nc2c(C#N)cnc3cc(OCCCN4CCN(C)CC4)c(OC)cc23)c(Cl)cc1Cl` ?
-2.27

Try this molecule next: `C[C@@H](Oc1cc(-c2cnn(C3CCNCC3)c2)cnc1N)c1c(Cl)ccc(F)c1Cl`
-1.8

Follow-up entry: `O=S(=O)(c1cccc2cnccc12)N1CCCNCC1`
15

Now give it for COc1cc2nccc(Oc3ccc(NC(=O)C4(C(=O)Nc5ccc(F)cc5)CC4)cc3)c2cc1OC [cabozantinib] too.
-3.52

Reference source for all entries: paper PMC3961306
